# ASSAY_SYSTEM: Delta-type opioid receptor (Homo sapiens)
# Sequence (P41143 whole entry): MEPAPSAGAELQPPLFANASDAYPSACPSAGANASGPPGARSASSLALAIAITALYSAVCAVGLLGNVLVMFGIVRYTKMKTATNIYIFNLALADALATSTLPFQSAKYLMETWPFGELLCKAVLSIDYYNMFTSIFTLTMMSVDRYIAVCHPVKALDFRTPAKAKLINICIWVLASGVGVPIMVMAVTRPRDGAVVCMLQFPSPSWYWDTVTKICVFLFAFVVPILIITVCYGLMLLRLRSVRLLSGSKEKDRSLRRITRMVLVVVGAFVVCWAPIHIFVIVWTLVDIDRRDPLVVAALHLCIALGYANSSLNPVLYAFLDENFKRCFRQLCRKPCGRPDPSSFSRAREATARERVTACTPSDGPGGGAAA
# ASSAY_METHOD_TEXT: Displacement of [3H]-DPDPE from human delta opiod receptor expressed in human HEK293 cells incubated for 60 mins by liquid scintillation counting method
OBSERVED_PROPERTY: Ki (µM)

[I] Cc1cc(C)cc(C2CCCN2Cc2ccc(Oc3ccc4c(=O)[nH]oc4c3)cc2)c1 (centres undefined)
[II] Cc1cc(C)cc(C2CCCN2Cc2ccc(Oc3ccc(C(N)=O)cc3F)cc2)c1 (racemic)
[ask] Looking only at measured Ki, which entry is lower, I or II ? Give the label of your selection.
[reply] II
(II: 0.105 µM, I: 5.01 µM)

====

# ASSAY_SYSTEM: Mu-type opioid receptor (Homo sapiens, UniProt P35372)
# Sequence (P35372 whole entry): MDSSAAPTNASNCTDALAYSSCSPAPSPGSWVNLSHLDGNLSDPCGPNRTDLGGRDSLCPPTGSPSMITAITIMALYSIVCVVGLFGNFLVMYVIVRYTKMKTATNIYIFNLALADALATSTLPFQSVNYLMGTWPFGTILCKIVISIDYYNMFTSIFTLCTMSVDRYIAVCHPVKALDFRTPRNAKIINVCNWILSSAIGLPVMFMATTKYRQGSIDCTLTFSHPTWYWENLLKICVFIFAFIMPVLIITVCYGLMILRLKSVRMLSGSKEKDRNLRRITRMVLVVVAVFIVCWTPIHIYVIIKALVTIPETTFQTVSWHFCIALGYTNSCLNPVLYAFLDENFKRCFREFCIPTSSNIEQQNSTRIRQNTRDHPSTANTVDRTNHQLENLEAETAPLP
# ASSAY_METHOD_TEXT: Displacement of [3H]-DAMGO from human mu opiod receptor expressed in CHO cells at 10 uM incubated for 60 mins by liquid scintillation counting method relative to control
# Type: cell-based
OBSERVED_PROPERTY: inhibition (%)

Consider the worked cases shown below.
| MOLECULE | ASSAY_SYSTEM | inhibition / % |
| --- | --- | --- |
| COc1ccc(C2CCCN2Cc2ccc(Oc3ccc(C(=O)NO)cc3F)cc2)cc1 (stereo not given) | Mu-type opioid receptor (Homo sapiens, UniProt P35372) | 43.1 |
| O=c1[nH]oc2c(F)c(Oc3ccc(CN4CCCC4c4cccc(Cl)c4)cc3)ccc12 (stereo not given) | Mu-type opioid receptor (Homo sapiens, UniProt P35372) | 0 |
| Cc1cc(C)cc(C2CCCN2Cc2ccc(Oc3ccc4c(=O)[nH]oc4c3)c(F)c2)c1 (stereo not given) | Mu-type opioid receptor (Homo sapiens, UniProt P35372) | 9.5 |
| Cc1cc(C)cc(C2CCCN2Cc2ccc(Oc3ccc4c(=O)[nH]oc4c3F)c(Cl)c2)c1 (stereo not given) | Mu-type opioid receptor (Homo sapiens, UniProt P35372) | 45.7 |
| COc1ccc(C2CCCN2Cc2ccc(Oc3ccc4c(=O)[nH]oc4c3F)cc2)cc1 (stereo not given) | Mu-type opioid receptor (Homo sapiens, UniProt P35372) | 41 |

[a] COc1cccc(C2CCCN2Cc2ccc(Oc3ccc4c(=O)[nH]oc4c3F)cc2)c1 (stereo not given)
[b] COc1ccc(C2CCCN2Cc2ccc(Oc3ccc4c(=O)[nH]oc4c3Cl)cc2)cc1 (stereo not given)
[ask] Looking only at measured inhibition, which entry is lower, a or b ? Give the label of your selection.
[reply] a
(a: 6.2%, b: 32.2%)

[a] COc1cccc(C2CCCN2Cc2ccc(Oc3ccc(C(=O)NO)cc3)cc2)c1 (stereo not given)
[b] COc1cccc(C2CCCN2Cc2ccc(Oc3ccc(C(=O)NO)cc3F)cc2)c1 (stereo not given)
[ask] Looking only at measured inhibition, which entry is lower, a or b ? Give the label of your selection.
[reply] a

====

# ASSAY_SYSTEM: Kappa-type opioid receptor (Homo sapiens, UniProt P41145)
# Sequence (P41145 whole entry): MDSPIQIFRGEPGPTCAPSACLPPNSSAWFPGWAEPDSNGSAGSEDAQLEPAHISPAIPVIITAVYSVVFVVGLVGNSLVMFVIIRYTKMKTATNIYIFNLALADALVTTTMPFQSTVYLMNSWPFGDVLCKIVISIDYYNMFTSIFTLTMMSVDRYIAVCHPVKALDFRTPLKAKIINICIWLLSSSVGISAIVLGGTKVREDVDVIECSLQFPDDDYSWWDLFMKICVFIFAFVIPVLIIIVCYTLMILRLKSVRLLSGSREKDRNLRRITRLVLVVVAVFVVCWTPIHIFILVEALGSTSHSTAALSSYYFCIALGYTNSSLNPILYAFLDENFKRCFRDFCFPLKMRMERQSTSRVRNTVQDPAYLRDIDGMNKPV
OBSERVED_PROPERTY: Ki (µM)
Write the answer as a number in µM, unit excluded.

[ask] Param readout = Ki; param system = Kappa-type opioid receptor (Homo sapiens, UniProt P41145); param query = O=C(NO)c1ccc(Oc2ccc(CN3CCCC3c3cccc(F)c3)cc2)c(F)c1 (stereo unspecified) ; response: value
[reply] 0.498

====

# ASSAY_SYSTEM: Mu-type opioid receptor (Homo sapiens, UniProt P35372)
# ASSAY_METHOD_TEXT: Antagonist activity at human mu opiod receptor expressed in CHO cells assessed as inhibition of DAMGO-induced [35S]GTPgammaS binding incubated for 4 hrs by microbeta liquid scintillation counting method
pIC50: −log10 of the molar value.
OBSERVED_PROPERTY: pIC50

[1] Cc1cc(C)cc(C2CCCN2Cc2ccc(Oc3ccc(C(N)=O)cc3F)cc2)c1 (racemic)
[2] COc1ccc(C2CCCN2Cc2ccc(Oc3ccc(C(=O)NO)cc3)cc2)cc1 (configuration not stated)
[ask] Looking only at measured pIC50, which entry is lower, 1 or 2 ? Give the label of your selection.
[reply] 2
(2: 6.70, 1: 7.53)

====

# ASSAY_SYSTEM: Delta-type opioid receptor (Homo sapiens)
# ASSAY_METHOD_TEXT: Antagonist activity at human delta opiod receptor expressed in human HEK293 cells assessed as inhibition of DPDPE-induced [35S]GTPgammaS binding incubated for 2 hrs by microbeta liquid scintillation counting method
OBSERVED_PROPERTY: IC50 (µM)
Write the answer as a number in µM, unit excluded.

[ask] What IC50 value was documented for this molecule, Cc1cc(C)cc(C2CCCN2Cc2ccc(Oc3ccc(C(N)=O)cc3F)cc2)c1 (racemic) ?
[reply] 0.109

====

# ASSAY_SYSTEM: Kappa-type opioid receptor (Homo sapiens, UniProt P41145)
# ASSAY_METHOD_TEXT: Displacement of [3H]-U69593 from human kappa opiod receptor expressed in CHO cells at 10 uM incubated for 60 mins by liquid scintillation counting method relative to control
# Assay type: cell-based
OBSERVED_PROPERTY: inhibition (%)

| COMPOUND | ASSAY_SYSTEM | inhibition (%) |
| --- | --- | --- |
| COc1cccc(C2CCCN2Cc2ccc(Oc3ccc4c(=O)[nH]oc4c3F)cc2)c1 (stereo not given) | Kappa-type opioid receptor (Homo sapiens, UniProt P41145) | 29 |
| Cc1cc(C)cc(C2CCCN2Cc2ccc(Oc3ccc4c(=O)[nH]oc4c3)c(F)c2)c1 (stereo not given) | Kappa-type opioid receptor (Homo sapiens, UniProt P41145) | 85.2 |
| COc1ccc(C2CCCN2Cc2ccc(Oc3ccc4c(=O)[nH]oc4c3Cl)cc2)cc1 (stereo not given) | Kappa-type opioid receptor (Homo sapiens, UniProt P41145) | 39.9 |
| Cc1cc(C)cc(C2CCCN2Cc2ccc(Oc3ccc4c(=O)[nH]oc4c3F)c(F)c2)c1 (stereo not given) | Kappa-type opioid receptor (Homo sapiens, UniProt P41145) | 56.9 |
| COc1ccc(C2CCCN2Cc2ccc(Oc3ccc(C(=O)NO)cc3)cc2)cc1 (stereo not given) | Kappa-type opioid receptor (Homo sapiens, UniProt P41145) | 86 |
| O=C(NO)c1ccc(Oc2ccc(CN3CCCC3c3cccc(Cl)c3)cc2)c(F)c1 (stereo not given) | Kappa-type opioid receptor (Homo sapiens, UniProt P41145) | 54.7 |

[a] O=c1[nH]oc2c(F)c(Oc3ccc(CN4CCCC4c4cccc(F)c4)cc3)ccc12 (stereo not given)
[b] COc1cccc(C2CCCN2Cc2ccc(Oc3ccc(C(=O)NO)cc3F)cc2)c1 (stereo not given)
[ask] Looking only at measured inhibition, which entry is lower, a or b ? Give the label of your selection.
[reply] a
(a: 24.8%, b: 80.4%)

====

# ASSAY_SYSTEM: Kappa-type opioid receptor (Homo sapiens, UniProt P41145)
# ASSAY_METHOD_TEXT: Antagonist activity at human kappa opiod receptor expressed in CHO cells assessed as inhibition of U69593-induced [35S]GTPgammaS binding incubated for 4 hrs by microbeta liquid scintillation counting method
OBSERVED_PROPERTY: IC50 (nM)

[I] COc1ccc(C2CCCN2Cc2ccc(Oc3ccc(C(=O)NO)cc3)cc2)cc1 (configuration not stated)
[II] Cc1cc(C)cc(C2CCCN2Cc2ccc(Oc3ccc(C(N)=O)cc3F)cc2)c1 (racemic)
[ask] Looking only at measured IC50, which entry is lower, I or II ? Give the label of your selection.
[reply] II
(II: 7.7 nM, I: 178 nM)

====

# ASSAY_SYSTEM: Kappa-type opioid receptor (Homo sapiens, UniProt P41145)
# ASSAY_METHOD_TEXT: Displacement of [3H]-U69593 from human kappa opiod receptor expressed in CHO cells at 1 uM incubated for 60 mins by liquid scintillation counting method relative to control
# Format: cell-based
OBSERVED_PROPERTY: inhibition (%)

Consider the worked cases shown below.
| MOLECULE | inhibition / % |
| --- | --- |
| COc1ccc(C2CCCN2Cc2ccc(Oc3ccc(C(=O)NO)cc3)cc2)cc1 (stereo not given) | 52.3 |
| O=C(NO)c1ccc(Oc2ccc(CN3CCCC3c3cccc(F)c3)cc2)c(F)c1 (stereo not given) | 45.8 |
| O=c1[nH]oc2c(Cl)c(Oc3ccc(CN4CCCC4c4cccc(F)c4)cc3)ccc12 (stereo not given) | 0 |

[P] Cc1cc(C)cc(C2CCCN2Cc2ccc(Oc3ccc4c(=O)[nH]oc4c3F)cc2)c1 (stereo not given)
[Q] Cc1cc(C)cc(C2CCCN2Cc2ccc(Oc3ccc4c(=O)[nH]oc4c3F)c(Cl)c2)c1 (stereo not given)
[ask] Name the one with the greater inhibition value, either P or Q as given. Give the label of your selection.
[reply] Q
(Q: 20.1%, P: 0%)

====

# ASSAY_SYSTEM: Kappa-type opioid receptor (Homo sapiens, UniProt P41145)
# ASSAY_METHOD_TEXT: Displacement of [3H]-U69593 from human kappa opiod receptor expressed in CHO cells at 10 uM incubated for 60 mins by liquid scintillation counting method relative to control
# Type: cell-based
OBSERVED_PROPERTY: inhibition (%)

Consider the worked cases shown below.
| MOLECULE | OBSERVED_PROPERTY | MEASURED |
| --- | --- | --- |
| O=c1[nH]oc2c(Cl)c(Oc3ccc(CN4CCCC4c4cccc(Cl)c4)cc3)ccc12 (centres undefined) | inhibition | 45.4 |
| Cc1cc(C)cc(C2CCCN2Cc2ccc(Oc3ccc4c(=O)[nH]oc4c3F)cc2)c1 (centres undefined) | inhibition | 36.4 |

[P] O=c1[nH]oc2c(F)c(Oc3ccc(CN4CCCC4c4cccc(Cl)c4)cc3)ccc12 (centres undefined)
[Q] Cc1cc(C)cc(C2CCCN2Cc2ccc(Oc3ccc4c(=O)[nH]oc4c3Cl)cc2)c1 (centres undefined)
[R] COc1cccc(C2CCCN2Cc2ccc(Oc3ccc(C(=O)NO)cc3)cc2)c1 (centres undefined)
[ask] Put these in order: smallest inhibition first, largest last. When ranking, write the labels in the order the request describes.
[reply] Q, P, R
